Experiment: Whiteness and yellowness of sodium p-styrenesulfonate powder with color-difference meter
Format: physicochemical
Settings: sodium p-styrenesulfonate crystal powder
ENDPOINT LABEL: Yellowness (YI value)

• C=Cc1ccc(S(=O)(=O)[O-])cc1.[Na+] [Comparative Example 1, sodium p-styrenesulfonate] = 16.5

P. C=Cc1ccc(S(=O)(=O)[O-])cc1.[Na+] [Example 1, sodium p-styrenesulfonate]
Q. C=Cc1ccc(S(=O)(=O)[O-])cc1.[Na+] [Comparative Example 6, sodium p-styrenesulfonate]
Of P and Q , whose reported Yellowness (YI value) is numerically smaller? // output: label of the selected item P

====

Experiment: Measurement of particle size distribution (laser diffraction/scattering, Microtrack HRA)
Assay type: physicochemical
Conditions: before purification, Table 2
ENDPOINT LABEL: Small particles less than 10.00 μm (%)

As a guide, the following entries are already answered.
- C=Cc1ccc(S(=O)(=O)[O-])cc1.[Na+] [Comparative Example 7, sodium p-styrenesulfonate]: 13.6
- C=Cc1ccc(S(=O)(=O)[O-])cc1.[Na+] [Example 7, sodium p-styrenesulfonate]: 0.0

P. C=Cc1ccc(S(=O)(=O)[O-])cc1.[Na+] [Comparative Example 8, sodium p-styrenesulfonate]
Q. C=Cc1ccc(S(=O)(=O)[O-])cc1.[Na+] [Comparative Example 9, sodium p-styrenesulfonate]
R. C=Cc1ccc(S(=O)(=O)[O-])cc1.[Na+] [Example 8, sodium p-styrenesulfonate]
S. C=Cc1ccc(S(=O)(=O)[O-])cc1.[Na+] [Example 6, sodium p-styrenesulfonate]
Please list these in order of increasing Small particles less than 10.00 μm. Thank you! List each label, following the requested order. P, S, R, Q
